SYSTEM_NAME: Dual specificity protein kinase CLK3 (Homo sapiens) (UniProt P49761)
Sequence (P49761 whole entry, looked up): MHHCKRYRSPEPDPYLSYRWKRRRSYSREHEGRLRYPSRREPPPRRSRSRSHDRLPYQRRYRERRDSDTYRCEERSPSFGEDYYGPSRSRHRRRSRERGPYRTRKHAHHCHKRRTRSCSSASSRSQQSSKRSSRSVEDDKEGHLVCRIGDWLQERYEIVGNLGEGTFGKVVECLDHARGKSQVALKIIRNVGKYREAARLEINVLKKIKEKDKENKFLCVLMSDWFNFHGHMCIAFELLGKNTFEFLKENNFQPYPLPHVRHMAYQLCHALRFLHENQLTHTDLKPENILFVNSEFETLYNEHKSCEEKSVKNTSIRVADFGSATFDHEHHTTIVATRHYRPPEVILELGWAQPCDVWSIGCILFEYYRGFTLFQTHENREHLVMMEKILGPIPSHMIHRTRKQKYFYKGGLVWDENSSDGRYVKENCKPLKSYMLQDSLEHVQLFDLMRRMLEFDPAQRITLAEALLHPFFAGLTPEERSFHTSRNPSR
CONDITION_NOTES: at 0.1 µM
Description: GSK_PKIS: CLK3 mean inhibition at 0.1 uM [Nanosyn]
Parameter inhibition: see the listing below.
EXPERIMENTAL_READOUT: inhibition (%)

{"columns": ["MOLECULE", "SYSTEM_NAME", "EXPERIMENTAL_READOUT", "VALUE_UNIT", "READING"],
 "data": [
  ["COc1cc2c(cc1Nc1nc(N3CCc4ccccc43)c3cc[nH]c3n1)N(C(=O)CN(C)C)CC2", "Dual specificity protein kinase CLK3 (Homo sapiens) (UniProt P49761)", "inhibition", "%", 0.14],
  ["CS(=O)(=O)CCN(CC#N)Cc1ccc(-c2ccc3ncnc(Nc4ccc(OCc5cccc(F)c5)c(Cl)c4)c3c2)o1", "Dual specificity protein kinase CLK3 (Homo sapiens) (UniProt P49761)", "inhibition", "%", -3.63],
  ["COC(=O)Nc1nc2cc(Oc3cccc(NC(=O)Nc4cc(C(F)(F)F)ccc4F)c3)ccc2[nH]1", "Dual specificity protein kinase CLK3 (Homo sapiens) (UniProt P49761)", "inhibition", "%", -0.93],
  ["O=C1NC(=O)C(c2ccc(Cl)cc2)=C1Nc1ccc(Cl)c(C(=O)O)c1", "Dual specificity protein kinase CLK3 (Homo sapiens) (UniProt P49761)", "inhibition", "%", 1.39],
  ["CCc1cccc(NC(=O)Nc2ccc(Oc3ccc4nc(NC(=O)OC)[nH]c4c3)cc2)c1", "Dual specificity protein kinase CLK3 (Homo sapiens) (UniProt P49761)", "inhibition", "%", 0.3],
  ["CC1=C(C(=O)Nc2ccc3[nH]ncc3c2)C(c2ccc(Cl)c(Cl)c2)CC(=O)N1 (stereo unspecified)", "Dual specificity protein kinase CLK3 (Homo sapiens) (UniProt P49761)", "inhibition", "%", 0.34],
  ["O=C1NC(=O)C(c2cccc(Cl)c2)=C1Nc1ccc(O)c(Cl)c1", "Dual specificity protein kinase CLK3 (Homo sapiens) (UniProt P49761)", "inhibition", "%", -0.5],
  ["CC(C)=Cc1cccc2c1/C(=N/Nc1ccc(S(N)(=O)=O)cc1)C(=O)N2", "Dual specificity protein kinase CLK3 (Homo sapiens) (UniProt P49761)", "inhibition", "%", -6.71],
  ["NS(=O)(=O)c1ccc(N/N=C2\\C(=O)Nc3ccc(C(=O)NCCc4c[nH]cn4)cc32)cc1", "Dual specificity protein kinase CLK3 (Homo sapiens) (UniProt P49761)", "inhibition", "%", 4.48],
  ["CCn1c(-c2nonc2N)nc2c(N3CCCC3)nccc21", "Dual specificity protein kinase CLK3 (Homo sapiens) (UniProt P49761)", "inhibition", "%", 1],
  ["N#Cc1c(NC(=O)c2cccc3ccccc23)sc2c1CCCC2", "Dual specificity protein kinase CLK3 (Homo sapiens) (UniProt P49761)", "inhibition", "%", 0.63],
  ["NCc1ccc(-c2nc(-c3ccc(Cl)c(O)c3)c(-c3ccncc3)[nH]2)cc1", "Dual specificity protein kinase CLK3 (Homo sapiens) (UniProt P49761)", "inhibition", "%", 0.63],
  ["COc1ccc2cc(-c3c(-c4ccncc4)nc(-c4ccc([S+](C)[O-])cc4)n3C)ccc2c1 (stereo unspecified)", "Dual specificity protein kinase CLK3 (Homo sapiens) (UniProt P49761)", "inhibition", "%", 0.91],
  ["O=C(Nc1n[nH]c2nc(-c3ccco3)c(Br)cc12)C1CC1", "Dual specificity protein kinase CLK3 (Homo sapiens) (UniProt P49761)", "inhibition", "%", 0.97],
  ["COc1ccc(-c2coc3ncnc(N)c23)cc1", "Dual specificity protein kinase CLK3 (Homo sapiens) (UniProt P49761)", "inhibition", "%", 1.07],
  ["COc1ccc(COc2ccc(Cc3cnc(N)nc3N)cc2OC)cc1", "Dual specificity protein kinase CLK3 (Homo sapiens) (UniProt P49761)", "inhibition", "%", -0.25],
  ["CC1=C(C(=O)Nc2ccc3[nH]ncc3c2)C(c2ccc(F)cc2)NC(=O)N1 (stereo unspecified)", "Dual specificity protein kinase CLK3 (Homo sapiens) (UniProt P49761)", "inhibition", "%", 3.34],
  ["COc1ccccc1Nc1ncc(-c2ccccc2)o1", "Dual specificity protein kinase CLK3 (Homo sapiens) (UniProt P49761)", "inhibition", "%", 1.23],
  ["CNC(=O)c1cncc(/C=C/c2c(Cl)cccc2Cl)c1", "Dual specificity protein kinase CLK3 (Homo sapiens) (UniProt P49761)", "inhibition", "%", -3.56],
  ["NC(=O)c1ccc(-c2nc(-c3ccccn3)c(-c3ccc4c(c3)OCO4)[nH]2)cc1", "Dual specificity protein kinase CLK3 (Homo sapiens) (UniProt P49761)", "inhibition", "%", -1.49],
  ["CCCN1CCC(Oc2cc(Nc3nc(Nc4cccc(F)c4C(N)=O)c4cc[nH]c4n3)c(OC)cc2Cl)CC1", "Dual specificity protein kinase CLK3 (Homo sapiens) (UniProt P49761)", "inhibition", "%", 0.11]
]}

====

SYSTEM_NAME: Protein kinase C eta type (Homo sapiens);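 also: value is the mean inhibition, from GSK PKIS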
CONDITION_NOTES: at 1 µM
EXPERIMENTAL_READOUT: inhibition (%)

{"columns": ["MOLECULE", "EXPERIMENTAL_READOUT", "VALUE_UNIT", "READING"],
 "data": [
  ["COC(=O)Nc1nc2cc(Oc3ccc(NC(=O)Nc4cccc(C(=O)O)c4)cc3)ccc2[nH]1", "inhibition", "%", 3.15],
  ["COc1cc2ncn(-c3cc(OCc4ccccc4C(F)(F)F)c(C(N)=O)s3)c2cc1OC", "inhibition", "%", 5.95],
  ["COc1cccc(-n2ncc3c(N/N=C/c4cccc(F)c4)ncnc32)c1", "inhibition", "%", 3.37],
  ["CCCN1CCC(Oc2cc(Nc3nc(Nc4cccc(F)c4C(N)=O)c4cc[nH]c4n3)c(OC)cc2Cl)CC1", "inhibition", "%", 1.59],
  ["NS(=O)(=O)c1cccc(-c2ccc3c(NC(=O)C4CC4)n[nH]c3c2)c1", "inhibition", "%", -2.3],
  ["CN1CCC(C(=O)Nc2n[nH]c3nnc(-c4ccccc4)cc23)CC1", "inhibition", "%", 5.6],
  ["c1cnn2ncc(-c3ccnc(Nc4ccc5c(c4)OCCO5)n3)c2c1", "inhibition", "%", 8.26],
  ["O=C1NC(=O)C(c2cccc(Cl)c2)=C1Nc1ccc(O)c(Cl)c1", "inhibition", "%", 2.97],
  ["CN(C)c1cc2c(Nc3ccc4nc(Cc5ccccc5)[nH]c4c3)ncnc2cn1", "inhibition", "%", 3.62],
  ["CCn1c(-c2nonc2N)nc2cncc(C(=O)N3CC[C@H](N)C3)c21", "inhibition", "%", 88.3],
  ["CCn1c(-c2nonc2N)nc2c(N3CCCC3)nccc21", "inhibition", "%", 11.2],
  ["CS(=O)(=O)CCN(CC#N)Cc1ccc(-c2ccc3ncnc(Nc4ccc(OCc5cccc(F)c5)c(Cl)c4)c3c2)o1", "inhibition", "%", 1.49],
  ["CS(=O)(=O)CCNCc1nc(-c2ccc3ncnc(Nc4ccc(F)c(Cl)c4)c3c2)cs1", "inhibition", "%", 3.26],
  ["COc1cc(C)c(NC(=O)CN(C)C)cc1Nc1nc(Nc2cccc(F)c2C(N)=O)c2cc[nH]c2n1", "inhibition", "%", 1.46],
  ["COc1cc2ncn(-c3cc(O[C@H](C)c4ccccc4Cl)c(C(N)=O)s3)c2cc1OC", "inhibition", "%", 4.05],
  ["NC(=O)c1ccc(-c2nc(-c3ccccn3)c(-c3ccc4c(c3)OCO4)[nH]2)cc1", "inhibition", "%", -0.29],
  ["CC1=C(C(=O)Nc2ccc3[nH]ncc3c2)C(c2ccc3ccccc3c2)CC(=O)N1 (stereo not given)", "inhibition", "%", 14.1],
  ["COC(=O)Nc1nc2cc(Oc3cccc(NC(=O)Nc4cc(C(F)(F)F)ccc4F)c3)ccc2[nH]1", "inhibition", "%", -1.2],
  ["Nc1nc(-c2ccc3c(c2)C(=Cc2cc(Br)c(O)c(Br)c2)C(=O)N3)cs1", "inhibition", "%", -1.96],
  ["Cc1cccc(-c2n[nH]cc2-c2ccc3ncccc3n2)n1", "inhibition", "%", 2.61]
]}

====

SYSTEM_NAME: Tyrosine-protein kinase Yes (Homo sapiens) (UniProt P07947);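 also: mean inhibition of YES, from the GSK PKIS dataset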
Sequence (P07947 2-543 limits assumed): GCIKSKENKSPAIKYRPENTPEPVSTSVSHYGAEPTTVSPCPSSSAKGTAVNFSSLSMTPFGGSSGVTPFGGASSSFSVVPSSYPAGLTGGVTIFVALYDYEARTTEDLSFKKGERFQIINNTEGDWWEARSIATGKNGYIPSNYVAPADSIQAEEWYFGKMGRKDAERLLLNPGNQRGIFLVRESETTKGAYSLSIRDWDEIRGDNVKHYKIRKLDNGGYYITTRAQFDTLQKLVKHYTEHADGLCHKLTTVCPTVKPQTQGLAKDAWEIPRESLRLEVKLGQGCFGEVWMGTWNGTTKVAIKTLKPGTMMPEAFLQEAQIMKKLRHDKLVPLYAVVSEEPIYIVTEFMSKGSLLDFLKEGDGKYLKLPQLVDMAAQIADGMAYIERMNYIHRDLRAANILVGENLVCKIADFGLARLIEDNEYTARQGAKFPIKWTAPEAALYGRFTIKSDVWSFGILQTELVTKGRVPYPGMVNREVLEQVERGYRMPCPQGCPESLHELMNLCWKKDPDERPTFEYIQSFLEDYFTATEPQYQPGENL
CONDITION_NOTES: at 0.1 µM
// inhibition lookup, one value per entry

{"columns": ["COMPOUND", "inhibition (%)"],
 "data": [
  ["COc1cccc(-n2ncc3c(N/N=C/c4cccc(F)c4)ncnc32)c1", 6.17],
  ["O=C1NC(=O)C(c2ccccc2Cl)=C1Nc1cccc(O)c1", 1.06],
  ["O=C1NC(=O)C(c2ccc(Cl)cc2)=C1Nc1ccc(Cl)c(C(=O)O)c1", -3.3],
  ["Nc1nc(-c2ccccn2)c(-c2ccc3ncccc3n2)s1", -0.44],
  ["CCCN1CCC=C(c2ccc(Nc3nc(Nc4ccccc4C(N)=O)c4cc[nH]c4n3)c(C)c2)C1", 1.14],
  ["COc1cc(C)c(NC(=O)CN(C)C)cc1Nc1nc(Nc2cccc(F)c2C(N)=O)c2cc[nH]c2n1", 2.05],
  ["NS(=O)(=O)c1ccc(N/N=C2\\C(=O)Nc3ccc(C(=O)NCCc4c[nH]cn4)cc32)cc1", 2.67],
  ["COc1ccc2cc(-c3c(-c4ccncc4)nc(-c4ccc([S+](C)[O-])cc4)n3C)ccc2c1 (centres undefined)", 2.16],
  ["CCn1c(-c2nonc2N)nc2ccncc21", 1.81],
  ["COc1cc2ncn(-c3cc(O[C@H](C)c4ccccc4Cl)c(C(N)=O)s3)c2cc1OC", 4.24],
  ["CN1CCC(C(=O)Nc2n[nH]c3nnc(-c4ccccc4)cc23)CC1", 3.36],
  ["CC1=C(C(=O)Nc2ccc3[nH]ncc3c2)C(c2ccc(Cl)c(Cl)c2)CC(=O)N1 (centres undefined)", 4.16],
  ["Fc1cccc(COc2ccc(Nc3ncnc4sc(-c5cccs5)cc34)cc2Cl)c1", 0.57],
  ["Nc1nc(-c2ccc3c(c2)C(=Cc2cc(Br)c(O)c(Br)c2)C(=O)N3)cs1", -4.7]
]}
